- TEST_TARGET: HLA-A*26:01
- TEST_SUMMARY: IEDB peptide-MHC binding, purified MHC/direct/fluorescence; filed as Kd, often an IC50 or EC50 that approximates it; bounds were set here for any values at or beyond the usual limits of such assays
- RUN_CONDITIONS: source organism: Burkholderia mallei
ENDPOINT_LABEL: Kd

For HLA-A*26:01, provide Kd of RVVRPWGSY please.
≥ 20 µM

====

- TEST_TARGET: HLA-A*02:11
- TEST_SUMMARY: IEDB peptide-MHC binding, purified MHC/competitive/fluorescence; filed as Kd, often an IC50 or EC50 that approximates it; bounds were set here for any values at or beyond the usual limits of such assays
- RUN_CONDITIONS: source organism: Campylobacter jejuni subsp. jejuni NCTC 11168 = ATCC 700819
pKd: −log10 of the molar value.
ENDPOINT_LABEL: pKd

For HLA-A*02:11, provide pKd of FTFERSKIK please.
≤ 4.70

====

- TEST_TARGET: HLA-B*44:03
- TEST_SUMMARY: IEDB peptide-MHC binding, purified MHC/competitive/radioactivity; filed as Kd, often an IC50 or EC50 that approximates it; bounds were set here for any values at or beyond the usual limits of such assays
- RUN_CONDITIONS: source organism: Lymphocytic choriomeningitis virus (strain Armstrong)
ENDPOINT_LABEL: Kd (µM)
One number for each entry, in µM.

record_sequence=LDVLCLSSL endpoint_label=Kd scale_unit=µM observed_measurement=7.54

Given the entry REAVESCPLM , report its measured Kd.
2.18

====

- TEST_TARGET: HLA-B*18:01
- TEST_SUMMARY: IEDB peptide-MHC binding, purified MHC/direct/fluorescence; filed as Kd, often an IC50 or EC50 that approximates it; bounds were set here for any values at or beyond the usual limits of such assays
- RUN_CONDITIONS: source organism: Orthohantavirus andesense
ENDPOINT_LABEL: Kd

For HLA-B*18:01, provide Kd of EKLKKKSAF please.
≥ 20 µM

====

- TEST_TARGET: HLA-A*03:01
- TEST_SUMMARY: IEDB peptide-MHC binding, purified MHC/direct/fluorescence; filed as Kd, often an IC50 or EC50 that approximates it; bounds were set here for any values at or beyond the usual limits of such assays
- RUN_CONDITIONS: source organism: West Nile virus
ENDPOINT_LABEL: Kd (nM)
Answers are plain numbers, in nM.

Given the entry KVLCPYMPK , report its measured Kd.
562

====

- TEST_TARGET: HLA-A*02:01
- TEST_SUMMARY: IEDB peptide-MHC binding, purified MHC/competitive/radioactivity; filed as Kd, often an IC50 or EC50 that approximates it; bounds were set here for any values at or beyond the usual limits of such assays
- RUN_CONDITIONS: source organism: Dengue virus 3 China/80-2/1980
ENDPOINT_LABEL: pKd
Give bare numbers, as −log10 of the molar value.

For HLA-A*02:01, provide pKd of LLTGGAMLFL please.
7.32

====

- TEST_TARGET: HLA-A*26:03
- TEST_SUMMARY: IEDB peptide-MHC binding, purified MHC/direct/fluorescence; filed as Kd, often an IC50 or EC50 that approximates it; bounds were set here for any values at or beyond the usual limits of such assays
- RUN_CONDITIONS: source organism: Picosynechococcus sp. PCC 7002
ENDPOINT_LABEL: pKd
Numbers only, as −log10 of the molar value.

For HLA-A*26:03, provide pKd of DTVLFNAGL please.
7.27

====

- TEST_TARGET: HLA-A*69:01
- TEST_SUMMARY: IEDB peptide-MHC binding, purified MHC/competitive/fluorescence; filed as Kd, often an IC50 or EC50 that approximates it; bounds were set here for any values at or beyond the usual limits of such assays
- RUN_CONDITIONS: source organism: Choclo virus
pKd: −log10 of the molar value.
ENDPOINT_LABEL: pKd

Given the entry HWMDATFNI , report its measured pKd.
≤ 4.70

====

- TEST_TARGET: HLA-A*68:02
- TEST_SUMMARY: IEDB peptide-MHC binding, purified MHC/competitive/fluorescence; filed as Kd, often an IC50 or EC50 that approximates it; bounds were set here for any values at or beyond the usual limits of such assays
- RUN_CONDITIONS: source organism: Vibrio vulnificus YJ016
pKd: −log10 of the molar value.
Exercise: state measured pKd for each of the sequences provided.

record_sequence=ESAEVEVYV endpoint_label=pKd observed_measurement="≥ 10.00"

Read the next record carefully.
Given the entry GMWCVLASR , report its measured pKd.
≤ 4.70

====

- TEST_TARGET: HLA-B*57:01
- TEST_SUMMARY: IEDB peptide-MHC binding, purified MHC/direct/fluorescence; filed as Kd, often an IC50 or EC50 that approximates it; bounds were set here for any values at or beyond the usual limits of such assays
- RUN_CONDITIONS: source organism: Vibrio vulnificus YJ016
ENDPOINT_LABEL: Kd

Given the entry SVFELSNFA , report its measured Kd.
≥ 20 µM

====

- TEST_TARGET: HLA-C*14:02
- TEST_SUMMARY: IEDB peptide-MHC binding, purified MHC/competitive/fluorescence; filed as Kd, often an IC50 or EC50 that approximates it; bounds were set here for any values at or beyond the usual limits of such assays
- RUN_CONDITIONS: source organism: Methylibium petroleiphilum PM1
ENDPOINT_LABEL: pKd
Answers are plain numbers, as −log10 of the molar value.

For HLA-C*14:02, provide pKd of FQMGGIGPM please.
7.88

====

- TEST_TARGET: HLA-B*15:01
- TEST_SUMMARY: IEDB peptide-MHC binding, purified MHC/competitive/radioactivity; filed as Kd, often an IC50 or EC50 that approximates it; bounds were set here for any values at or beyond the usual limits of such assays
- RUN_CONDITIONS: source organism: Dengue virus 2 16681-PDK53
ENDPOINT_LABEL: Kd (nM)
Numbers only, in nM.

Given the entry KVVQPENLEY , report its measured Kd.
30

====

- TEST_TARGET: HLA-B*18:01
- TEST_SUMMARY: IEDB peptide-MHC binding, purified MHC/direct/fluorescence; filed as Kd, often an IC50 or EC50 that approximates it; bounds were set here for any values at or beyond the usual limits of such assays
- RUN_CONDITIONS: source organism: Salmonella enterica subsp. enterica serovar Typhimurium str. LT2
Exercise: state measured pKd for each of the sequences provided.
One number for each entry, as −log10 of the molar value.

Batch: pKd for all items listed.
1. FPASHMATY
2. RERGLALHV

1: 8.15; 2: 5.35

====

- TEST_TARGET: HLA-B*39:01
- TEST_SUMMARY: IEDB peptide-MHC binding, purified MHC/direct/fluorescence; filed as Kd, often an IC50 or EC50 that approximates it; bounds were set here for any values at or beyond the usual limits of such assays
- RUN_CONDITIONS: source organism: Giardia lamblia ATCC 50803
ENDPOINT_LABEL: Kd

Given the entry MHYGYNRAN , report its measured Kd.
≥ 20 µM

====

Exercise: state measured pKd for each of the sequences provided.
- TEST_TARGET: HLA-A*03:01
- TEST_SUMMARY: IEDB peptide-MHC binding, purified MHC/direct/fluorescence; filed as Kd, often an IC50 or EC50 that approximates it; bounds were set here for any values at or beyond the usual limits of such assays
- RUN_CONDITIONS: source organism: Vibrio vulnificus
pKd: −log10 of the molar value.

record_sequence=DFPIFNQRY observed_measurement="≤ 4.70"

Read the next record carefully.
Given the entry LLTQSNAGF , report its measured pKd.
≤ 4.70

====

- TEST_TARGET: HLA-A*03:01
- TEST_SUMMARY: IEDB peptide-MHC binding, purified MHC/competitive/fluorescence; filed as Kd, often an IC50 or EC50 that approximates it; bounds were set here for any values at or beyond the usual limits of such assays
- RUN_CONDITIONS: source organism: Entamoeba histolytica HM-1:IMSS
pKd: −log10 of the molar value.
ENDPOINT_LABEL: pKd

For HLA-A*03:01, provide pKd of IGKMNKHYK please.
≤ 4.70

====

- TEST_TARGET: HLA-B*58:01
- TEST_SUMMARY: IEDB peptide-MHC binding, purified MHC/competitive/fluorescence; filed as Kd, often an IC50 or EC50 that approximates it; bounds were set here for any values at or beyond the usual limits of such assays
- RUN_CONDITIONS: source organism: Brucella melitensis bv. 1 str. 16M
ENDPOINT_LABEL: Kd

Given the entry TTRAVNMEV , report its measured Kd.
≥ 5 µM

====

- TEST_TARGET: HLA-B*39:01
- TEST_SUMMARY: IEDB peptide-MHC binding, purified MHC/competitive/fluorescence; filed as Kd, often an IC50 or EC50 that approximates it; bounds were set here for any values at or beyond the usual limits of such assays
- RUN_CONDITIONS: source organism: Escherichia coli
ENDPOINT_LABEL: Kd (nM)
Give bare numbers, in nM.

Given the entry YIVGYYSAL , report its measured Kd.
87.1
